Experiment: folding stability dG unfold (combined trypsin and chymotrypsin); higher = more stable
Kind request: treat 10 kJ/mol as inclusive, so folding stability dG unfold at 10 kJ/mol or higher is T, anything lower is F.

Could you tell me if the measured folding stability dG unfold of SAGMTLKEEEFELPDGSRRIRLTFTSEEELAAKLKELGFEKFNPLSPSESVDVTIPPDGVLSESLPKEGSAG [r5_941_JUSTAS] reaches 10 kJ/mol or more?
F

Could you tell me if the measured folding stability dG unfold of SAGMITLEKTVPLSEATPEKAKEIAEELLEKLKKEGLPEGLEKTSIEITELPGDELIVKVPTKIVSKESAGG [r19_87_JUSTAS] reaches 10 kJ/mol or more?
F

Could you tell me if the measured folding stability dG unfold of SAGGSAGGSASMSPEELAEKYREEYEKKYGIPAVEVKVEVIPEEEKYVITIKLPGSEITVIVSAGGSAGGSA [r18_145_JUSTAS] reaches 10 kJ/mol or more?
T

Could you tell me if the measured folding stability dG unfold of SMKPVKITEVTEDTITVTVTVYDKETNRLVKVTAEITFDKETKKLTIKVKVEVLPPLSEEQRKALEEALKSA [r9_1038_TrROS_Hall] reaches 10 kJ/mol or more?
T

Could you tell me if the measured folding stability dG unfold of SAGGSAGGSAGMVKVKITAPPNASLDAIIKAVKDNGAEIISIERKGNELIIEVEIPEENASAGGSAGGSAGG [r11_672_TrMRF] reaches 10 kJ/mol or more?
F

Could you tell me if the measured folding stability dG unfold of SAGGAPSTFTSTSPEGETTVTTTTTYYPETGTTTTTTTTTNPATGTSTTTTTTTPVAPPQPPLLEAGASAGG [r13_694_JUSTAS] reaches 10 kJ/mol or more?
F

Could you tell me if the measured folding stability dG unfold of SAGGSAGGSAKAKIKKVEVEKEGDKLRVTAEIELEDGYVLKVSFEFKDDEIKMEIEIVPLKDSAGGSAGGSA [r18_79_TrROS_Hall] reaches 10 kJ/mol or more?
T

Could you tell me if the measured folding stability dG unfold of SAGGSAGGSMPVKRELIITVTEPSSGTTRTLVVEVETEEEAEAVVAAVAAVPDRTVTEVRRLASAGGSAGGS [r12_152_JUSTAS] reaches 10 kJ/mol or more?
F

Could you tell me if the measured folding stability dG unfold of SAGGGAAEEAARALIDEAKAALGLSEISEVVLTREGDGVTMTVRFPGKGLVITIDLAAGVVTAVEDVSAGGS [r16_171_JUSTAS] reaches 10 kJ/mol or more?
F

Could you tell me if the measured folding stability dG unfold of SAGGSAGGSAAKIVDINISVRRSPENGYWKIPITIRIKGPNGKEQEIDLTMVFKIPPGQPLFSAGGSAGGSA [r18_95_TrROS] reaches 10 kJ/mol or more?
T

Could you tell me if the measured folding stability dG unfold of SAGGSATKVIYGMSVEEIRAAIKAGAKKIIIVADTEEQKKAAAEELEKEYNIKIEVKKIKPKKKKKSAGGSA [r15_243_TrROS_Hall] reaches 10 kJ/mol or more?
F

Could you tell me if the measured folding stability dG unfold of SMKKKVVVKAKIEKIRPDGGKEELEEVFVMEVSPDDPEEIKAAIDEAIEALKKAYPNIKKIEIEEVIIEDSA [r9_436_TrMRF] reaches 10 kJ/mol or more?
T

Could you tell me if the measured folding stability dG unfold of SAGGSAGGSAGGMEISEKLREYIEKLGKKVSEEEALAIAEEKAKELKEKGIEDVTIVLPVSAGGSAGGSAGG [r7_512_JUSTAS] reaches 10 kJ/mol or more?
F

Could you tell me if the measured folding stability dG unfold of SAGGSAGGSKGPMITITLFILVRPDDGKYYATVIEMYIYPNGGIDIEMEMIPADDIPPGDIVISAGGSAGGS [r12_38_TrROS] reaches 10 kJ/mol or more?
T

Could you tell me if the measured folding stability dG unfold of SAGGSAMTPEEIRNMSLEEILKLIKEKLEKGEKVEIEITLPDGRKLRITFERLPNGEIKITIEEVDSAGGSA [r15_857_TrROS_Hall] reaches 10 kJ/mol or more?
T

Could you tell me if the measured folding stability dG unfold of SAGKTIVLPPEMTKEQIEALAKELAEEEGFEKVELVEYDEEKGVFTVKVKVDGKEKTIEIKIVSPEELESAG [r5_912_TrROS_Hall] reaches 10 kJ/mol or more?
F

Could you tell me if the measured folding stability dG unfold of SAEVRTVTDANGTQRTVTKTPDGTETVTTRPVPAPPPPPTVTVEVEYDAENGTLTVRLPDGSKLEFTFEDSA [r9_56_TrROS_Hall] reaches 10 kJ/mol or more?
F

Could you tell me if the measured folding stability dG unfold of SAGGSAGGSAGGPIKIKHNDGVEITIPADNVRSVDTNPGPGYIKITFPGNGQEFQIPIDSAGGSAGGSAGGS [r10_200_TrROS] reaches 10 kJ/mol or more?
F

Could you tell me if the measured folding stability dG unfold of SAGGSAGGKKYRVVVYNPETGEWVEVEEVEFDPETGEVRVRLPGSGKEVTIPKDYPVYLNPELDSAGGSAGG [r6_884_TrMRF] reaches 10 kJ/mol or more?
T

Could you tell me if the measured folding stability dG unfold of SAGGSAGGEEEYYEIEIVLPKEKAEEILEELKKKLPEGWEIVSVEVVEVDEDGYVRLRIVVKRTSAGGSAGG [r6_340_TrROS_Hall] reaches 10 kJ/mol or more?
T

Could you tell me if the measured folding stability dG unfold of SAGGSAPEPYTFKMKNPKGPPVEITITRNPNNGNYMISVEMPGPGKKHEGPMPMEDLNNLPGLEPVSAGGSA [r15_622_TrROS] reaches 10 kJ/mol or more?
F

Could you tell me if the measured folding stability dG unfold of SAGGSAKPEKVIVLEIEIEMTPEEVKKLVEELLKEKFGVEIERIEVEVERLPDGTLKVRVRVVIRESAGGSA [r15_138_TrROS_Hall] reaches 10 kJ/mol or more?
T

Could you tell me if the measured folding stability dG unfold of SAGGMIVIEVETEEEALEAARELAKKLLEKLKEEGIEEVTLTVTVEVVDEKTKEVKTYTLTLTVKKPSAGGS [r8_163_TrROS_Hall] reaches 10 kJ/mol or more?
T

Could you tell me if the measured folding stability dG unfold of SAGGSAGGSAPPPLPPDAVVTIPNPGSLEEVKKLAEKLREEHGIKKIKITVEPNSVTLTVASAGGSAGGSAG [r3_73_JUSTAS] reaches 10 kJ/mol or more?
F

Could you tell me if the measured folding stability dG unfold of SAGGSAMKLTFTDSKGRTIEITVEKKYLPNGEPYLIITIKYPDTDEEIVITMPTSNIDEILEKLLNSAGGSA [r15_92_JUSTAS] reaches 10 kJ/mol or more?
T

Could you tell me if the measured folding stability dG unfold of SAGGKKVIITKVETNKNGKKTYTVTLYYKDKKTNEWKKVAEFTFESKEEAENAAKELAKKLNLKIIPSAGGS [r16_512_TrROS_Hall] reaches 10 kJ/mol or more?
T

All figures here come from the supplement of paper PMC12764529.
